Where these numbers come from: ChEMBL document CHEMBL5620430

# Assay name: Observed clearance in Sprague-Dawley rat at 2 mg/kg, iv by LC-MS/MS analysis
# Assay type: ADME, organism-based
# Test conditions: in vivo
Assay readout: clearance (mL/min/kg)
A number alone suffices; assume mL/min/kg.

Request: Which measured clearance value corresponds to C=CC(=O)Nc1cc2c(cc1-c1n[nH]c3ccc(O[C@H](C)c4c(Cl)cncc4Cl)cc13)CCN(C)C2 ?
Result: 174

* * *

Assay system Fibroblast growth factor receptor 4 (Homo sapiens); read-out recorded as IC50.
A number alone suffices; assume nM.

Past entries and their recorded results:
C=CC(=O)Nc1cc2c(cc1-c1n[nH]c3ccc(O[C@H](C)c4c(Cl)cncc4Cl)cc13)CN(CCOC)CC2 ... 9.7
C=CC(=O)Nc1cccc(-c2n[nH]c3ccc(O[C@H](C)c4c(Cl)cncc4Cl)cc23)c1 ... 1200
C=CC(=O)Nc1cc2c(cc1-c1n[nH]c3ccc(O[C@H](C)c4c(Cl)cncc4Cl)cc13)CCN(C)C2 ... 2.4
C=CC(=O)Nc1cc2c(cc1-c1n[nH]c3ccc(O[C@H](C)c4c(Cl)cncc4Cl)cc13)CN(CCO)CC2 ... 6.2
C=CC(=O)Nc1ccc(N2CCN(C)CC2)cc1-c1n[nH]c2ccc(O[C@H](C)c3c(Cl)cncc3Cl)cc12 ... 2.1
C=CC(=O)Nc1cc(N2CCOCC2)ccc1-c1n[nH]c2ccc(O[C@H](C)c3c(Cl)cncc3Cl)cc12 ... 2.2

Request: Which measured IC50 value corresponds to C=CC(=O)Nc1cc2c(cc1-c1n[nH]c3ccc(O[C@H](C)c4c(Cl)cncc4Cl)cc13)CN(C)C2 ?
Result: 2.7

Request: Which measured IC50 value corresponds to C=CC(=O)Nc1ccc(N2CCOCC2)cc1-c1n[nH]c2ccc(O[C@H](C)c3c(Cl)cncc3Cl)cc12 ?
Result: 2.5
